These entries and their values trace back to the supplement of paper PMC7156485.

System: HCC1569;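 also: TDF denotes transformed human dermal fibroblasts of mesenchymal origin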
assay_notes: cell number relative to DMSO (% of DMSO); higher = more cells (less growth inhibition / toxicity)
assay_conditions: concentration: 10 µM; 24 h

compound: O=c1c(-c2ccc(O)cc2)coc2cc(OC3OC(CO)C(O)C(O)C3O)cc(O)c12 (centres undefined)
subject_of_test: HCC1569
cell number: 103
//
compound: O=C(O)c1ccc(NC(=O)[C@H](CC2CCCC2)n2cnc(C(F)(F)F)c2)nc1
subject_of_test: HCC1569
cell number: 100
//
compound: COc1cc2ccccc2cc1C(=O)OC(C)C(=O)NCc1ccc(F)cc1 (centres undefined)
subject_of_test: HCC1569
cell number: 102
//
compound: O=C(O)COC(=O)Cc1ccccc1Nc1c(Cl)cccc1Cl
subject_of_test: HCC1569
cell number: 104
//
compound: Cl.NC12CC3CC(CC(C3)C1)C2 [Amantadine.HCl]
subject_of_test: HCC1569
cell number: 103
//
compound: O=P(O)(O)C(Cl)(Cl)P(=O)(O)O
subject_of_test: HCC1569
cell number: 101
//
compound: CCC(=O)c1ccc2c(c1)N(CCCN(C)C)c1ccccc1S2.Cl [Propionylpromazine hydrochloride]
subject_of_test: HCC1569
cell number: 97.4
//
compound: COc1cc(O)c2c(c1)oc(=O)c1c3cc(O)c(O)cc3oc21
subject_of_test: HCC1569
cell number: 91.7
//
compound: CCN(CC)CCCC(C)Nc1ccnc2cc(Cl)ccc12 (centres undefined)
subject_of_test: HCC1569
cell number: 101
//
compound: NC(=O)c1ccc(N(C(N)=O)c2c(F)cccc2F)nc1-c1ccc(F)cc1F
subject_of_test: HCC1569
cell number: 105
//
compound: O=[N+]([O-])c1cc(S(=O)(=O)Nc2ccc(O)c3ccccc23)ccc1Cl [4-chloro-N-(4-hydroxy-1-naphthyl)-3-nitrobenzenesulfonamide]
subject_of_test: HCC1569
cell number: 85.3
//
compound: CCCCCC=CCC=CCC=CCC=CCCCC(=O)OC(CO)COC(=O)CCCCCCCCCCCCCCCCC (centres undefined)
subject_of_test: HCC1569
cell number: 100
//
compound: CCn1cc(C(=O)O)c(=O)c2ccc(C)nc21
subject_of_test: HCC1569
cell number: 102
//
compound: C=Cc1c(C)c2cc3[nH]c(cc4nc(cc5nc(cc1[nH]2)C(C)=C5CCC(=O)O)C(CCC(=O)O)=C4C)c(C)c3C=C [Protoporphyrin IX disodium]
subject_of_test: HCC1569
cell number: 103
//
compound: C[C@@H](c1nc(-c2ccc(C#N)cc2)cs1)[C@](O)(Cn1cncn1)c1ccc(F)cc1F
subject_of_test: HCC1569
cell number: 83.5
//
compound: CCCCCCCCC=CCCCCCCCCCCCCCC(=O)O [15(Z)-Tetracosenoic acid]
subject_of_test: HCC1569
cell number: 103
//
compound: CC(=O)Nc1ccc(NC(=S)NC(=O)c2ccc(C(C)(C)C)cc2)cc1
subject_of_test: HCC1569
cell number: 96.5
//
compound: NS(=O)(=O)c1cc(C2(O)NC(=O)c3ccccc32)ccc1Cl (centres undefined)
subject_of_test: HCC1569
cell number: 101
//
compound: CCCCCCC=CCCCCCCCCC(=O)O [10(E)-Heptadecenoic acid]
subject_of_test: HCC1569
cell number: 97.6
//
compound: O=C(ON1C(=O)CCC1=O)N1CCN(C(c2ccc(Cl)cc2)c2ccc(Cl)cc2)CC1
subject_of_test: HCC1569
cell number: 77.8
//
compound: CCC(C)C1OC2(CCC1C)CC1CC(CC=C(C)C(OC3CC(OC)C(OC4CC(OC)C(O)C(C)O4)C(C)O3)C(C)C=CC=C3COC4C(O)C(C)=CC(C(=O)O1)C34O)O2 (centres undefined)
subject_of_test: HCC1569
cell number: 102
//
compound: CC(CCc1ccc(O)cc1)NCCc1ccc(O)c(O)c1.Cl (centres undefined) [Dobutamine hydrochloride]
subject_of_test: HCC1569
cell number: 101
//
compound: C=C1CC23CC1(O)CCC2C12C=CC(O)C(C)(C(=O)O1)C2C3C(=O)O (single isomer, unassigned; (+)) [(+)-Gibberellic acid]
subject_of_test: HCC1569
cell number: 108
//
compound: CC1(C)SC2C(NC(=O)COc3ccccc3)C(=O)N2C1C(=O)[O-] (centres undefined)
subject_of_test: HCC1569
cell number: 100
//
compound: COc1cc(=O)n(C)c2c(OCC(O)C(C)(C)O)cccc12 (centres undefined)
subject_of_test: HCC1569
cell number: 103
//
compound: Cc1nc(-c2ccccc2)c(-c2ccncc2)o1
subject_of_test: HCC1569
cell number: 99.2
//
compound: CC(C)Cn1cnc2c(N)nc3ccccc3c21
subject_of_test: HCC1569
cell number: 102
//
compound: OCC1OC(OC2OC=CC3C(O)C4OC4(CO)C23)C(O)C(O)C1O (centres undefined)
subject_of_test: HCC1569
cell number: 105
//
compound: O=C1NC(=O)c2c1c1c3ccccc3[nH]c1n1cncc21 [Isogranulatimide]
subject_of_test: HCC1569
cell number: 87.7
//
compound: CCOC(=O)CN1C(=O)c2ccc3c4c(ccc(c24)C1=O)C(=O)N(CC(=O)OCC)C3=O
subject_of_test: HCC1569
cell number: 104
//
compound: C=CCc1ccc(O)c(OC)c1
subject_of_test: HCC1569
cell number: 103
//
compound: O=c1c(O)c(-c2ccccc2O)oc2cc(O)cc(O)c12
subject_of_test: HCC1569
cell number: 101
//
compound: S=C([S-])OC1CC2CC1C1CCCC21.[K+] (centres undefined)
subject_of_test: HCC1569
cell number: 102
//
compound: COc1ccc2cc3[n+](cc2c1OC)CCc1cc2c(cc1-3)OCO2.Cl
subject_of_test: HCC1569
cell number: 99.4
